System: MV4-11
experimentSummary: Antiproliferative activity against human MV4-11 cells
measuredParameter: IC50 (nM)

A. NC(=O)c1c(NC(=O)/C=C/c2ccco2)sc2c1CCCC2
B. NC(=O)c1c(NC(=O)c2cccc(Cl)c2)sc2c1CCCC2
C. COc1ccc(C(=O)Nc2sc(C)c(C)c2C(N)=O)cc1OC
Lab note: arrange the 3 compounds above from lowest to highest IC50. Form entry: ranked labels (order as requested).
C, A, B
(C: 330 nM, A: 480 nM, B: 2200 nM)

1. NC(=O)c1c(NC(=O)CSc2ccccc2)sc2c1CCCC2
2. Cc1ccc(/C=C/C(=O)Nc2sc3c(c2C(N)=O)CCCC3)o1
3. NC(=O)c1c(NC(=O)c2ccc3c(c2)OCO3)sc2c1CCCC2
Which order do these items take when sorted by rising IC50? List them. Form entry: ranked labels (order as requested).
3, 1, 2
(3: 890 nM, 1: 3800 nM, 2: 10000 nM)
